Each entry below carries its reported half-life.
- experimentNotes: Half life in rat liver microsomes
- Type: ADME, Microsome

# compound, half-life
rows = [
    ("NC(=O)C1CCCc2c1[nH]c1ccc(Cl)cc21 (configuration not stated)", "> 1 h"),
    ("NC(=O)C1CCCCc2c1[nH]c1ccc(Cl)cc21 (configuration not stated)", "> 1 h"),
]

---

- testedSystem: NAD-dependent protein deacetylase sirtuin-1 (Homo sapiens, UniProt Q96EB6)
- Sequence (Q96EB6 whole entry): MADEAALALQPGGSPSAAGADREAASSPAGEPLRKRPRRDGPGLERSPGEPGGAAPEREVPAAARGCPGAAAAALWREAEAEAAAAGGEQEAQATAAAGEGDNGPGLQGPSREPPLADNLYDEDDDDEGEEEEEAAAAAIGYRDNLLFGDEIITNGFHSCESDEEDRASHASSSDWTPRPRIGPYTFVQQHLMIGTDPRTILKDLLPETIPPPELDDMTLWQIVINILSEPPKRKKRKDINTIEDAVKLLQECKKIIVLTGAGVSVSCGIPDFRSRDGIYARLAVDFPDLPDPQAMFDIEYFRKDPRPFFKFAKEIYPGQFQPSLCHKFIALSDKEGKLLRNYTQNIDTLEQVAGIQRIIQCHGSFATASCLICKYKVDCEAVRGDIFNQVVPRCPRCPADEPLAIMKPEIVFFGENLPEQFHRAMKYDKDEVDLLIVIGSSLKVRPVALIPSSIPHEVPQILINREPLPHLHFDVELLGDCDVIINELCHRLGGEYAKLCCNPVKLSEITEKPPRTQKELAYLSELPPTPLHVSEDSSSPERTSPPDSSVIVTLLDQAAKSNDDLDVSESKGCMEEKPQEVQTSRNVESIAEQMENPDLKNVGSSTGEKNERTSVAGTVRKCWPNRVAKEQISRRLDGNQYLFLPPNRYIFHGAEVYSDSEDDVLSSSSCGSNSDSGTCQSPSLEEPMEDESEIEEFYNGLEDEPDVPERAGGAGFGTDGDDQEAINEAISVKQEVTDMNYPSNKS
pIC50: −log10 of the molar value.

# compound, pIC50
data = [
    ("Cc1ccc2[nH]c3c(c2c1)CCCC3C(N)=O (stereo unspecified)", 5.60),
]
